Record form. Attribute: abundance fitness. Fill in for each entry.
B1: GA-binding protein alpha chain, residues 172 to 250; numbered along this chain, Q06546 (parent)
chain: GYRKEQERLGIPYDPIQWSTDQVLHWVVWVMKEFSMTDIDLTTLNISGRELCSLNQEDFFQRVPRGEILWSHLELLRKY

Variants of: B1
Experiment: abundance fitness (aPCA) (normalised: wild type 0, dead -1); higher = more abundant; growth selection in yeast, the domain comes from the species named
Settings: Homo sapiens
Could you keep your reply to the number by itself?

stdin: Please report the recorded abundance fitness for D38A .
stdout: -0.154

stdin: Input D21W
stdout: -0.185

stdin: Quick one: R77V
stdout: -0.343

stdin: Moving on to the next variant: H72S
stdout: -0.143

stdin: Consider next the variant D14I in the same way.
stdout: -0.94

stdin: Would you kindly repeat that for Q17N ?
stdout: -0.062

stdin: Now this one: D58S
stdout: 0.003

stdin: Another: I39T
stdout: -0.035

stdin: T20M ?
stdout: -0.15

stdin: Please give the result for P64W too.
stdout: -0.67

stdin: Similarly, L69P ?
stdout: -1.06

stdin: And what about the variant L51W ?
stdout: -1.04

stdin: Cool, now I46E
stdout: -0.939

stdin: Record: I46A
stdout: -0.584

stdin: Also G48D , if possible.
stdout: -0.804

stdin: Follow-up item: R3C
stdout: -0.206

stdin: // query: L69M
stdout: -0.124

stdin: What about this variant? I39M
stdout: -0.021

stdin: Next up: F59C
stdout: -0.972

stdin: Try the variant L44H
stdout: -0.825

stdin: Can you handle W26C next?
stdout: -0.866

stdin: Another variant to look at: L41F
stdout: -0.094

stdin: Now give it for P12K too.
stdout: -0.762

stdin: What do we get for V27W ?
stdout: -0.732

stdin: Next record, please: M31L
stdout: -0.11

stdin: Now this one: E74G
stdout: -0.066

stdin: // next record F59N
stdout: -0.74

stdin: Again, but for F34Q
stdout: -0.012

stdin: Moving on to the next variant: D14A
stdout: -0.369

stdin: Would you mind doing Q6I as well?
stdout: 0.078

stdin: Thanks! And Q17K ?
stdout: -0.143

stdin: Same question, Q22W this time
stdout: -1

stdin: Same again, this time with F59I
stdout: -0.507

stdin: One more variant: D40N
stdout: -0.043

stdin: F34G ?
stdout: -0.117

stdin: Now consider K4R and answer again.
stdout: -0.029

stdin: Moving on to the next variant: L69K
stdout: -1

stdin: Another: T42Q
stdout: -0.032

stdin: Proceed to D21L
stdout: -0.414

stdin: Would you kindly repeat that for W18N ?
stdout: -0.134

stdin: And what about the variant R8A ?
stdout: -0.056

stdin: Let us now turn to K78F
stdout: -0.086

stdin: Ok, now D40C
stdout: -0.281

stdin: Also need L24Y , thanks.
stdout: -0.278

stdin: Also check G1M
stdout: 0.045

stdin: Now try I39F .
stdout: -0.011

stdin: And then T42D , what is it?
stdout: -0.011

stdin: Repeat with I16V
stdout: -0.014

stdin: Next: V27L
stdout: -0.194

stdin: # repeat for K4N
stdout: -0.032

stdin: # iterate: Y13P
stdout: -0.058

stdin: Follow-up entry: G10L
stdout: -0.158

stdin: Another: P15G
stdout: -0.888

stdin: Request: L75I
stdout: 0.107

stdin: # iterate: T42I
stdout: -0.181

stdin: Can you handle R49C next?
stdout: -0.109

stdin: Cool, now N55A
stdout: -0.065

stdin: How about K78R ?
stdout: 0.003

stdin: Same again, this time with L9M
stdout: 0.011

stdin: V23D ?
stdout: -0.873

stdin: And the next one, W26L ?
stdout: -0.886

stdin: What do you have for F60C ?
stdout: -0.088

stdin: Input N55C
stdout: -0.124

stdin: And R3W ?
stdout: -0.081

stdin: What about Q6H ?
stdout: -0.852

stdin: Okay, and W29H ?
stdout: -0.404

stdin: Subsequent entry: G10F
stdout: -0.272

stdin: // repeat for L44E and report
stdout: -0.876

stdin: Same read-out for S47W ?
stdout: -0.812

stdin: Next: F60N
stdout: -0.183

stdin: # iterate: N45A
stdout: 0.003

stdin: Then this variant: P12C
stdout: -0.494

stdin: And W29S ?
stdout: -0.439

stdin: Similarly, I16D ?
stdout: -0.116

stdin: One more variant: W29I
stdout: -1.09

stdin: Note, next up: H25T
stdout: -0.12

stdin: Also F34R , if possible.
stdout: -0.035

stdin: What do you have for F60V ?
stdout: 0.049

stdin: Repeat for the following variant: P12N
stdout: -0.542

stdin: What about L24A ?
stdout: -0.083

stdin: Now consider L76F and answer again.
stdout: -0.354

stdin: Also I11H , if possible.
stdout: -0.644

stdin: Then this variant: L54D
stdout: -0.842

stdin: What about Y13C ?
stdout: -0.138

stdin: Do the same for Q61L please
stdout: -0.009

stdin: Then what about the variant I39N ?
stdout: -0.07

stdin: Repeat with H72Y
stdout: -0.46

stdin: Okay, and P15H ?
stdout: -0.813

stdin: Moving on to the next variant: E57T
stdout: -0.068

stdin: Repeat with G10H
stdout: -0.07

stdin: Follow-up item: F60S
stdout: 0

From: the Human Domainome abundance scans (Beltran et al. 2025)
